- studyTarget: T1, Human PTGFRN-ECD (extracellular domain; amino-acid 26 to amino-acid Y at 832), His-tag protein (human, UniProt Q9P2B2 26-832)
- T1 construct: range 26-832; Expressed in Hek-293 cells, purified on a nickel column; also called recombinant PTGFRN; not shown: His-tag
- T1 sequence (looked up): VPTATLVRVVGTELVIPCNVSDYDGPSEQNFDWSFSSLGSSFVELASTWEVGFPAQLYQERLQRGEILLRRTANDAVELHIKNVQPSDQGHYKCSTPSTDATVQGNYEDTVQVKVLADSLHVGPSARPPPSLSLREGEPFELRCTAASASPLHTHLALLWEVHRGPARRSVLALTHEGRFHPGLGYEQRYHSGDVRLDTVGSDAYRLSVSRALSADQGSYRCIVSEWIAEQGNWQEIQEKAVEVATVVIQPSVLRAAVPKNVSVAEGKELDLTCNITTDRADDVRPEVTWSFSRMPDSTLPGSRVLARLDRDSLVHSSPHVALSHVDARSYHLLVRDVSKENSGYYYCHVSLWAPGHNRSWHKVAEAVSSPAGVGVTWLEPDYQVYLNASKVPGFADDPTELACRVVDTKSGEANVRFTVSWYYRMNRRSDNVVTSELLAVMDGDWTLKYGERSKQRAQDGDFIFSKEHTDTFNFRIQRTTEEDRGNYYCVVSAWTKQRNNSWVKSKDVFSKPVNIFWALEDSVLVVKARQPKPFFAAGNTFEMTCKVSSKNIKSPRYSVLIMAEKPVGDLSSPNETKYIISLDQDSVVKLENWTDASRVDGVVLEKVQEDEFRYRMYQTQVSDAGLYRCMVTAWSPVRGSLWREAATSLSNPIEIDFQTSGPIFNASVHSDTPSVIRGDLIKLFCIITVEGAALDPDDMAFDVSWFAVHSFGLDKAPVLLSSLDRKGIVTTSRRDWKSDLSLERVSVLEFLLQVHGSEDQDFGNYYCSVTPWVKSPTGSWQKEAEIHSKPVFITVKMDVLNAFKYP
- protocol: Octet Red96 pairing (binning matrix) on PTGFRN-ECD; capture Ab (1st loading Ab): 9A9
readoutType: Octet pairing response
I'd appreciate a reply containing only the number, no unit.

// query # get_value(readout='Octet pairing response', item= 10D9 (antibody, V domains shown, Mouse hybridoma mAb) VH: DVQLQESGPGLVKPSQSLSLTCSVTGCSITSGYDWNWIRQFPGNKLEWMGYINYDGNSNYIPSLKNRVSITRDTSKNQFFLKLNSVTTEDTATYYCARSDGYYWYFDVWGTGTTVTVSS VL: DIKMTQSPSSMYASLGERVTITCKASQDIKSYLSWYQQKPWKSPKTLIYYATSLADGVPSRFSASGSGQDYSLTISSLESDDTATYYCLQHAERPLTFGAGTKLELK )
// result 0.226
